Measured TGI, listed per entry.
- Test system: SR leukemia
- assay: NCI tumour cell line growth inhibition, 48 h
Enter your answer as a number in µM; do not include the unit.

line-notation: O=C(/C=C/c1cccc(B(O)O)c1)c1cccc(B(O)O)c1
TGI / µM: 1.65

Query string: Bench note: what TGI did `CN(C)CCOc1nc2ccccc2c2c1-c1ccc(Cl)cc1C2=O` show?
Result string: 1.03

Query string: Same question for `CCOC(=O)c1c(C(F)(F)F)oc2c1ccc1nc3nonc3nc12` please.
Result string: 17.7

Query string: Same question for `C[N+]1=c2c3cccc4cccc(c(=O)n2CCC1)c43` please.
Result string: 46.9

---

- Test system: KM12 colon
- assay: NCI tumour cell line growth inhibition, 48 h
quantity-name: TGI

molecule: CCOC(=O)N1CCC(=O)C[C@@H]1C/C=C/P1(=O)O[C@H](c2ccccc2)C(C)N1C(C)C (stereo partly specified)
result: > 100 µM

molecule: Cc1cc(C)c2[s+]snc2c1
result: > 100 µM

molecule: O=C(O)c1cc(N(Cc2ccccc2O)Cc2cc(O)ccc2O)ccc1O
result: > 100 µM

molecule: C[C@]12CC[C@H](O)CC1=CC[C@@H]1[C@@H]2CC[C@]2(C)C(=O)CC[C@@H]12
result: > 100 µM

molecule: O=C(NC/C(Cl)=C/Cl)Nc1cccc2c1CCCC2
result: > 100 µM

Query string: Reported TGI for KM12 colon, given CN(C)CCC(C(=O)C(C)(C)C)c1ccccn1 (stereo unspecified) ?
Result string: > 100 µM

Query string: Same question for `O=C(/C=C/c1cccc(B(O)O)c1)c1cccc(B(O)O)c1` please.
Result string: 2.79 µM

Query string: Same question for NC(=O)CCC(NC(=O)C(F)(F)F)C(=O)O (stereo unspecified) please.
Result string: > 100 µM

Query string: Same question for `CCc1ccccc1-n1c(N)c(C#N)c(-c2ccc(OC)c(OC)c2)c(C#N)c1=O` please.
Result string: 34.6 µM

Query string: Same question for COc1cc(C2C(Cl)C(=O)N2NC(=O)Cc2ccccc2)ccc1O (stereo unspecified) please.
Result string: > 100 µM

Query string: Same question for `CCCc1ccc(OCC(=O)N/N=C/c2c(-c3ccccc3)[nH]c3ccccc23)cc1` please.
Result string: 38.5 µM

---

- Test system: NCI-H23 lung
- assay: NCI tumour cell line growth inhibition, 48 h
Measured TGI, listed per entry.

compound: C[C@]12CCCC(=O)C1C[C@H](C(=O)O)CC2 (stereo partly drawn)
TGI: > 100 µM
//
compound: Cc1cc(C)c(NS(=O)c2cccc([N+](=O)[O-])c2)c(C)c1 (stereo not drawn)
TGI: > 100 µM

Query string: Bench note: what TGI did `CCNCCNc1cc(-c2cccc(C(F)(F)F)c2)c(C#N)c2nc3ccccc3n12` show?
Result string: 3.53 µM

Query string: Same question for Cc1cccc(N=C2NC(=O)C(CC(=O)Nc3ccc(Cl)cc3C)S2)c1 (stereo not drawn) please.
Result string: > 100 µM

Query string: Same question for C=C1CC(C/C=C(\C)CC2CC(=C)C(=O)O2)OC1=O (stereo not drawn) please.
Result string: > 100 µM

Query string: Same question for CC(C)Cc1cccc(C(C)C)c1NC(=O)CCC(=O)N/N=C1\C(=N/NC(=O)CCC(=O)Nc2c(C(C)C)cccc2C(C)C)C(c2ccc3c(c2)OCO3)Oc2ccccc21 (stereo not drawn) please.
Result string: > 100 µM

Query string: Same question for `N#Cc1c(Oc2ccc(F)c(NC(=O)Cc3cccc(C(F)(F)F)c3)c2)ccc2nc(NC(=O)C3CC3)sc12` please.
Result string: > 100 µM
